# ASSAY_SUMMARY: recombinant barcode read abundance after kanamycin selection (control-corrected) (log10(CPM+1)); higher = more efficient recombination; sequences stand for … in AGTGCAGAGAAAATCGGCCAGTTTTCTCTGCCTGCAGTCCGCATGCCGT…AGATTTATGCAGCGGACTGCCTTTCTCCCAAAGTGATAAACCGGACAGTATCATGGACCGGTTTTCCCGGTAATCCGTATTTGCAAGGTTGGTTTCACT; site = the 11-nt target
PARAMETER: recombinant barcode read abundance (log10)
The answer should be written as a number, with no unit following it.

INSERT INTO results (residue_string, measured_value) VALUES
  ('TGAGTCCCTTGGGTTCTAACCTGTTGCAG (site TGAGTCCCTCT)', 2.79),
  ('GCCTGAGCTTGGGTTCTAACCTGTTGCCT (site GCCTGAGCTAG)', 0.303),
  ('TGAGATGCTTGGGTTCTAACCTGTTGCCT (site TGAAATGCTAG)', 0.199),
  ('TAGAATGCTTGGGTTCTAACCTGTTGCCT (site TAGAATGCTAA)', 0.133),
  ('TGAGCGGCTTGGGTTCTAACCTGTTGCCT (site TGAGTGGCTAG)', 0.0667),
  ('TCACTAGCTTGGGTTCTAACCTGTTGCCT (site TTACGAGCTAG)', 0);

Enquiry: Please look up its recombinant barcode read abundance (log10): CTAGATTCTTGGGTTCTAACCTGTTGCCT (site CGAGATTCTAG)
Return: 0.077

Enquiry: Please look up its recombinant barcode read abundance (log10): TATTAACCTTGGGTTCTAACCTGTTGCCT (site TATTAACCTAG)
Return: 0.329

Enquiry: Please look up its recombinant barcode read abundance (log10): ACTCGCTCTTGGGTTCTAACCTGTTGCAC (site GGGACTACTCG)
Return: 0.0345

Enquiry: Please look up its recombinant barcode read abundance (log10): TGCCAGCCTTGGGTTCTAACCTGTTGCCT (site TGCCAGACTAT)
Return: 0.114

Enquiry: Please look up its recombinant barcode read abundance (log10): CGAGGGTCTTGGGTTCTAACCTGTTGCCT (site CGAGGGTCTAG)
Return: 1.87

Enquiry: Please look up its recombinant barcode read abundance (log10): TGAGTGGCTTGGGTTCTAACCTGTTGCCT (site TGAGGGGCTAG)
Return: 0.00884

Enquiry: Please look up its recombinant barcode read abundance (log10): TCCCAGTCTTGGGTTCTAACCTGTTGCTT (site TCCCAGTCTAC)
Return: 0.0373

Enquiry: Please look up its recombinant barcode read abundance (log10): CTAATTACTTGGGTTCTAACCTGTTGCAC (site CTAATTACTGT)
Return: 0.249

====

Measured recombinant barcode read abundance (log10) by item
# ASSAY_SUMMARY: recombinant barcode read abundance after kanamycin selection (control-corrected) (log10(CPM+1)); higher = more efficient recombination; sequences stand for … in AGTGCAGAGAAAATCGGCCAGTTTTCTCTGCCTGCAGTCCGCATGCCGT…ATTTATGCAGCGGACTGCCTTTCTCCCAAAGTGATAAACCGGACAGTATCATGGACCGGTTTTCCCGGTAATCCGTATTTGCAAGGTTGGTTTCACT; site = the 11-nt target

Take a look at these entries with their results.
INSERT INTO measurements (residue_string, measured_value) VALUES
  ('GGACACCTCTGGGTTCTAACCTGTTGCCTGA [GGACACCCTAG_LTGcore_TC_RTGcore_TC] (site GGACACCCTAG) (LTG core: TC, RTG core: TC)', 0.149),
  ('GAGCCCATGTGGGTTCTAACCTGTTGCCTAG [GAGCCCACTAG_LTGcore_TG_RTGcore_CT] (site GAGCCCACTAG) (LTG core: TG, RTG core: CT)', 0.0858),
  ('GTCGCCCCATGGGTTCTAACCTGTTGCTATG [GTCGCCCCTTA_LTGcore_CA_RTGcore_CA] (site GTCGCCCCTTA) (LTG core: CA, RTG core: CA)', 0.379);

Enquiry: Please look up its recombinant barcode read abundance (log10): AAACACATATGGGTTCTAACCTGTTGCCTTA [AAACACACTAG_LTGcore_TA_RTGcore_TA] (site AAACACACTAG) (LTG core: TA, RTG core: TA)
Return: 0.146

Enquiry: Please look up its recombinant barcode read abundance (log10): GCGCGACCTTGGGTTCTAACCTGTTGCTTGT [GCGCGACCTAA_LTGcore_CT_RTGcore_AC] (site GCGCGACCTAA) (LTG core: CT, RTG core: AC)
Return: 0.0798

Enquiry: Please look up its recombinant barcode read abundance (log10): GAGCCCAAATGGGTTCTAACCTGTTGCCTAG [GAGCCCACTAG_LTGcore_AA_RTGcore_CT] (site GAGCCCACTAG) (LTG core: AA, RTG core: CT)
Return: 0.0475

====

# ASSAY_SUMMARY: recombinant barcode read abundance after kanamycin selection (control-corrected) (log10(CPM+1)); higher = more efficient recombination; sequences stand for … in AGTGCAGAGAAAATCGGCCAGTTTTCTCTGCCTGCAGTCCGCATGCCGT…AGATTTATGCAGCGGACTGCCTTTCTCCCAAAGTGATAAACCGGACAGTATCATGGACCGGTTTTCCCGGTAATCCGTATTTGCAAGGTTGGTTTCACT; site = the 11-nt target
PARAMETER: recombinant barcode read abundance (log10)
The answer should be written as a number, with no unit following it.

INSERT INTO assay_data (residue_string, measured_value) VALUES
  ('GTAATTGCTTGGGTTCTAACCTGTTGCCT (site GTAAATGCTAG)', 0.184),
  ('CTCAATTCTTGGGTTCTAACCTGTTGCAT (site CTCTATTCTAT)', 0.148);

Could you now consider this next sequence?
Enquiry: Please look up its recombinant barcode read abundance (log10): CGAGGGTCTTGGGTTCTAACCTGTTGCTT (site AGAGGGTCTAA)
Return: 0.172

====

# ASSAY_SUMMARY: recombinant UMI read abundance after kanamycin selection (control-corrected) (log10(CPM+1)); higher = more efficient recombination; extreme values may be limits of the assay; sequences stand for … in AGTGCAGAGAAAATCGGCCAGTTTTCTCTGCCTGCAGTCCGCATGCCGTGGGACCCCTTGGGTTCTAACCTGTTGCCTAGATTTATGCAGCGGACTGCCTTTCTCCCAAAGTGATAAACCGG…AGGTTGGTTTCACT; site = the 11-nt donor
Measured recombinant UMI read abundance (log10) by item
The answer should be written as a number, with no unit following it.

INSERT INTO results (residue_string, measured_value) VALUES
  ('ACCCGAACATGGACCGGTTTTCCCGGTAATCCGTATTTGTC (site ACACGAACTGA)', 0),
  ('GCCACGCCATGGACCGGTTTTCCCGGTAATCCGTATTTGTC (site GCCACGCCTAA)', 0),
  ('CTACTACCATGGACCGGTTTTCCCGGTAATCCGTATTTGCT (site CTGCTACCTAG)', 0.00524);

Enquiry: Please look up its recombinant UMI read abundance (log10): ACATCTACATGGACCGGTTTTCCCGGTAATCCGTATTTGTG (site CCATCTACTCA)
Return: 0.465

Enquiry: Please look up its recombinant UMI read abundance (log10): CTAGTATCATGGACCGGTTTTCCCGGTAATCCGTATTTGCC (site CTAGTATCTGC)
Return: 2.28

Enquiry: Please look up its recombinant UMI read abundance (log10): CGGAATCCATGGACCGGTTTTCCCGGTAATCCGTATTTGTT (site CAGAATCCTAT)
Return: 0

Enquiry: Please look up its recombinant UMI read abundance (log10): AGGATCCCATGGACCGGTTTTCCCGGTAATCCGTATTTGTG (site AGGCTCCCTCA)
Return: 0.00372

Enquiry: Please look up its recombinant UMI read abundance (log10): AGGAATCCATGGACCGGTTTTCCCGGTAATCCGTATTTGTT (site TGGAATCCTAA)
Return: 0

Enquiry: Please look up its recombinant UMI read abundance (log10): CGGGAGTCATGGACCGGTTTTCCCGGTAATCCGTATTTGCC (site CGGGCGTCTGG)
Return: 0

Enquiry: Please look up its recombinant UMI read abundance (log10): GTATTCGCATGGACCGGTTTTCCCGGTAATCCGTATTTGCG (site GTAATCGCTCG)
Return: 0.015

====

# ASSAY_SUMMARY: recombinant barcode read abundance after kanamycin selection (control-corrected) (log10(CPM+1)); higher = more efficient recombination; sequences stand for … in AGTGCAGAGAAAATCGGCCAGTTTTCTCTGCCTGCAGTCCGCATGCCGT…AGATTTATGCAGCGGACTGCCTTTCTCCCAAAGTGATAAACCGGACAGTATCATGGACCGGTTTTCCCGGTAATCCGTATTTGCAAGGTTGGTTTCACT; site = the 11-nt target
PARAMETER: recombinant barcode read abundance (log10)
The answer should be written as a number, with no unit following it.

Take a look at these entries with their results.
INSERT INTO results (residue_string, measured_value) VALUES
  ('CGACATCCTTGGGTTCTAACCTGTTGCCT (site CGACATCCTAG)', 0.214),
  ('TGCCTATCTTGGGTTCTAACCTGTTGCCT (site TGCCTATCTAG)', 0.28),
  ('ACATGTGCTTGGGTTCTAACCTGTTGCAG (site ACATGTGCTCT)', 1.72);

Could you now consider this next sequence?
Enquiry: Please look up its recombinant barcode read abundance (log10): AGAAAGGCTTGGGTTCTAACCTGTTGCGC (site GTGGGCACTAG)
Return: 0.0408
